Where do the numbers come from? From the supplement of paper PMC10567573.

B1: PPFIA4 (parent)
chain: YAGNLHESGVHGALLALDENFDHN

# Variants of: B1
# MEASUREMENT PROTOCOL: protein stability index of a GFP-peptide fusion (GPS, HEK-293T) (PSI 1-6); higher = more stable;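 also: lentivirally expressed fusions sorted by FACS into six bins by GFP to DsRed ratio, PSI derived from sequencing read proportions per bin multiplied by bin number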
# SETTINGS: c terminus: a fixed tail appended
ASSAY READOUT: protein stability index

> print(dat)
     var  experimental.value
 1  L15I                2.22
 2  E19Y                1.61
 3  L17M                2.96
 4  H11I                1.66
 5  A16P                3.43
 6  D18P                2.16
 7  A13K                2.96
 8  N20P                2.63
 9   A2F                3.84
10   G3I                2.81
11  H23L                2.34
12  F21E                3.93
13  L14I                1.97
14  V10L                2.35
15  A16R                2.99
16   S8R                2.02
17   G3P                2.29
18   H6K                2.24
19   Y1K                 4.5
20  E19Q                1.64
21   G3T                2.69
22   E7L                2.34
